system: Botrytis cinerea (ATCC #204446); assay: Strawberry in vivo analysis, volatile bioassay on wound-inoculated strawberry; parameters: species or system Botrytis cinerea on strawberry; details: symptoms of phytotoxicity evaluated daily
measurement_label: phytotoxicity in strawberry in vivo analysis

molecule	reading
CC(C)(OB1OCc2cc(F)ccc21)C(C)(C)OB1OCc2cc(F)ccc21 [Compound 9]	no phytotoxicity
Fc1ccc2c(c1)COB2OCCOB1OCc2cc(F)ccc21 [Compound 7]	no phytotoxicity
c1ccc2c(c1)COB2OCCOB1OCc2ccccc21 [Compound 1]	no phytotoxicity
Fc1ccc2c(c1)COB2OCCCOB1OCc2cc(F)ccc21 [Compound 13]	no phytotoxicity

---

tested on: Botrytis cinerea (ATCC #204446); assay: in vitro inhibition assay for volatile antimicrobial compounds (headspace, PDA agar); format: cell-based; conditions: Botrytis cinerea, ATCC204446, 72 h; volatile headspace exposure, 3 days at 23° C., growth relative to control
measurement_label: log10 of EC50 (log10 of the value in µg/mL)
Field: value | Transform: log10 | Quantity: EC50 | Unit: µg/mL

Query string: Dear colleague, I am looking for the recorded log10 of EC50 of the following compound: CC(C)(COB1OCc2cc(F)ccc21)COB1OCc2cc(F)ccc21 [Compound 8]
Result string: -0.52

Query string: And for c1ccc2c(c1)COB2OCCNCCNCCOB1OCc2ccccc21 [Compound 4] ?
Result string: -0.40

Query string: And for Fc1ccc2c(c1)COB2OCCNCCNCCOB1OCc2cc(F)ccc21 [Compound 10] ?
Result string: -0.70

Query string: And for Fc1ccc2c(c1)COB2NCCCNB1OCc2cc(F)ccc21 [Compound 16] ?
Result string: -0.52

Query string: And for Fc1ccc2c(c1)COB2OB1OCc2cc(F)ccc21 [Compound 20] ?
Result string: -1.00

Query string: And for OC(COB1OCc2cc(F)ccc21)COB1OCc2cc(F)ccc21 [Compound 12] ?
Result string: -0.70

Query string: And for Fc1ccc2c(c1)COB2OCCOB1OCc2cc(F)ccc21 [Compound 7] ?
Result string: -0.70

Query string: And for CC(C)(OB1OCc2ccccc21)C(C)(C)OB1OCc2ccccc21 [Compound 3] ?
Result string: 0.32

Query string: And for c1ccc2c(c1)COB2OB1OCc2ccccc21 [Compound 6] ?
Result string: -0.10

Query string: And for c1ccc2c(c1)COB2OCCOB1OCc2ccccc21 [Compound 1] ?
Result string: -0.05

Query string: And for CC(COB1OCc2cc(F)ccc21)OB1OCc2cc(F)ccc21 (centres unmarked) [Compound 11] ?
Result string: -0.70

Query string: And for CC(C)(OB1OCc2cc(F)ccc21)C(C)(C)OB1OCc2cc(F)ccc21 [Compound 9] ?
Result string: -0.52

Query string: And for Fc1ccc2c(c1)COB2OCc1ccc(COB2OCc3cc(F)ccc32)cc1 [Compound 14] ?
Result string: -0.40

Query string: And for Fc1cc2c(cc1F)B(OCCOB1OCc3cc(F)c(F)cc31)OC2 [Compound 18] ?
Result string: 0.48

Query string: And for Fc1ccc2c(c1)COB2OCc1cccc(COB2OCc3cc(F)ccc32)c1 [Compound 15] ?
Result string: -0.15

Query string: And for Fc1ccc2c(c1)COB2OCCCOB1OCc2cc(F)ccc21 [Compound 13] ?
Result string: -1.00

Query string: And for Fc1ccc2c(c1)COB2NCCNB1OCc2cc(F)ccc21 [Compound 17] ?
Result string: -0.40
